Readings of pKi for the listed compounds
Target: Mu-type opioid receptor (Rattus norvegicus)
Assay: Displacement of [3H]DAMGO from mu opioid receptor in rat cortices by competition binding assay
pKi: −log10 of the molar value.
propertyLabel: pKi

> print(dat)
                               smilesstring  limitoperator  value
1  Oc1ccc(C[C@H]2CN3C(=CC4=NC[C@H](Cc5ccc(O)cc5)N4C[C@@H]3Cc3ccccc3)N2)cc1              =   6.22
2  CC(C)C[C@H]1CN2C(=CC3=NC[C@H](C(C)C)N3C[C@@H]2Cc2ccccc2)N1              <   5.00
3  Oc1ccc(C[C@H]2CN3C(=CC4=NC[C@H](Cc5ccc(O)cc5)N4C[C@@H]3Cc3ccccc3)N2CCc2ccccc2)cc1              =   6.41
4  Oc1ccc(C[C@H]2CN3C(=CC4=NC[C@H](Cc5ccccc5)N4C[C@@H]3Cc3ccccc3)N2)cc1              =   6.25

----------
Mu-type opioid receptor (Rattus norvegicus) Ki data
propertyLabel: Ki

> print(dat)
                               smilesstring  propertylabel    value
1  Oc1ccc(C[C@H]2CN3C(=CC4=NC[C@H](Cc5ccccc5)N4C[C@@H]3Cc3ccccc3)N2CCc2ccccc2)cc1             Ki  3150 nM
2  Oc1ccc(C[C@H]2CN3C(=CC4=NC[C@H](Cc5ccccc5)N4C[C@@H]3Cc3ccc(O)cc3)N2CCc2ccccc2)cc1             Ki   878 nM
3  Oc1ccc(C[C@H]2CN3C(=CC4=NC[C@H](Cc5ccccc5)N4C[C@@H]3Cc3ccc(O)cc3)N2)cc1             Ki  1180 nM
4  CC(C)[C@H]1CN=C2C=C3N(CCc4ccccc4)[C@@H](Cc4ccc(O)cc4)CN3[C@@H](Cc3ccccc3)CN21             Ki  1110 nM
5  CC(C)C[C@H]1CN2C(=CC3=NC[C@H](C(C)C)N3C[C@@H]2Cc2ccc(O)cc2)N1             Ki  1190 nM
6  Oc1ccc(C[C@H]2CN3C(=CC4=NC[C@H](Cc5ccc(O)cc5)N4C[C@@H]3Cc3ccc(O)cc3)N2CCc2ccccc2)cc1             Ki   246 nM
7  CC(C)C[C@H]1CN2C(=CC3=NC[C@H](Cc4ccccc4)N3C[C@@H]2Cc2ccc(O)cc2)N1CCc1ccccc1             Ki   949 nM
8  CC(C)[C@H]1CN=C2C=C3N[C@@H](Cc4ccc(O)cc4)CN3[C@@H](Cc3ccccc3)CN21             Ki  5040 nM
9  CC(C)C[C@H]1CN2C(=CC3=NC[C@H](Cc4ccccc4)N3C[C@@H]2Cc2ccc(O)cc2)N1             Ki  1330 nM

----------
Target: Kappa-type opioid receptor (Cavia porcellus, UniProt P41144)
Readings of Ki for the listed compounds
propertyLabel: Ki (nM)

> print(dat)
                               smilesstring                                  testedon  valueunit  limitoperator  value
1  Oc1ccc(C[C@H]2CN3C(=CC4=NC[C@H](Cc5ccccc5)N4C[C@@H]3Cc3ccccc3)N2CCc2ccccc2)cc1  Kappa-type opioid receptor (Cavia porcellus, UniProt P41144)         nM              >  10000
2  CC(C)C[C@H]1CN2C(=CC3=NC[C@H](C(C)C)N3C[C@@H]2Cc2ccc(O)cc2)N1CCc1ccccc1  Kappa-type opioid receptor (Cavia porcellus, UniProt P41144)         nM              =     23
3  CC(C)C[C@H]1CN2C(=CC3=NC[C@H](C(C)C)N3C[C@@H]2Cc2ccccc2)N1  Kappa-type opioid receptor (Cavia porcellus, UniProt P41144)         nM              =   1080
4  CC(C)C[C@H]1CN2C(=CC3=NC[C@H](C(C)C)N3C[C@@H]2Cc2ccc(O)cc2)N1  Kappa-type opioid receptor (Cavia porcellus, UniProt P41144)         nM              =    209

----------
Target: Delta-type opioid receptor (Rattus norvegicus)
Assay: Displacement of [3H]DPDPE from delta opioid receptor in rat cortices by competition binding assay
pKi: −log10 of the molar value.
propertyLabel: pKi

> print(dat)
                               smilesstring  limitoperator  value
1  CC(C)[C@H]1CN=C2C=C3N[C@@H](Cc4ccc(O)cc4)CN3[C@@H](Cc3ccccc3)CN21              ≤   5.00
2  CC(C)C[C@H]1CN2C(=CC3=NC[C@H](C(C)C)N3C[C@@H]2Cc2ccccc2)N1CCc1ccccc1              =   5.99
3  CC(C)C[C@H]1CN2C(=CC3=NC[C@H](Cc4ccccc4)N3C[C@@H]2Cc2ccc(O)cc2)N1CCc1ccccc1              =   7.43
4  Oc1ccc(C[C@H]2CN3C(=CC4=NC[C@H](Cc5ccc(O)cc5)N4C[C@@H]3Cc3ccc(O)cc3)N2CCc2ccccc2)cc1              =   6.41
5  Oc1ccc(C[C@H]2CN3C(=CC4=NC[C@H](Cc5ccc(O)cc5)N4C[C@@H]3Cc3ccccc3)N2)cc1              =   7.16
6  CC(C)C[C@H]1CN2C(=CC3=NC[C@H](C(C)C)N3C[C@@H]2Cc2ccc(O)cc2)N1CCc1ccccc1              =   7.49
7  CC(C)C[C@H]1CN2C(=CC3=NC[C@H](C(C)C)N3C[C@@H]2Cc2ccc(O)cc2)N1              =   6.67
8  Oc1ccc(C[C@H]2CN3C(=CC4=NC[C@H](Cc5ccccc5)N4C[C@@H]3Cc3ccc(O)cc3)N2CCc2ccccc2)cc1              =   6.73

----------
Target: Delta-type opioid receptor (Homo sapiens)
Experiment: Agonist activity at delta opioid receptor (unknown origin) expressed in CHO-K1 cells assessed as inhibition of forskolin-induced cAMP accumulation by FRET assay
Readings of EC50 for the listed compounds
propertyLabel: EC50 (nM)

> print(dat)
                               smilesstring  propertylabel  valueunit  value
1  CC(C)C[C@H]1CN2C(=CC3=NC[C@H](Cc4ccccc4)N3C[C@@H]2Cc2ccc(O)cc2)N1           EC50         nM   6360
2  CC(C)C[C@H]1CN2C(=CC3=NC[C@H](Cc4ccccc4)N3C[C@@H]2Cc2ccc(O)cc2)N1CCc1ccccc1           EC50         nM   1640
3  CC(C)C[C@H]1CN2C(=CC3=NC[C@H](C(C)C)N3C[C@@H]2Cc2ccc(O)cc2)N1CCc1ccccc1           EC50         nM    366

----------
Molecular target: Kappa-type opioid receptor (Cavia porcellus, UniProt P41144)
Readings of log10 of Ki for the listed molecules
propertyLabel: log10 of Ki (log10 of the value in nM)

> print(dat)
                               smilesstring                                  testedon  value
1  CC(C)C[C@H]1CN2C(=CC3=NC[C@H](Cc4ccccc4)N3C[C@@H]2Cc2ccc(O)cc2)N1CCc1ccccc1  Kappa-type opioid receptor (Cavia porcellus, UniProt P41144)   2.81
2  Oc1ccc(C[C@H]2CN3C(=CC4=NC[C@H](Cc5ccccc5)N4C[C@@H]3Cc3ccccc3)N2)cc1  Kappa-type opioid receptor (Cavia porcellus, UniProt P41144)   3.92
3  CC(C)[C@H]1CN=C2C=C3N(CCc4ccccc4)[C@@H](Cc4ccc(O)cc4)CN3[C@@H](Cc3ccccc3)CN21  Kappa-type opioid receptor (Cavia porcellus, UniProt P41144)   3.28
4  Oc1ccc(C[C@H]2CN3C(=CC4=NC[C@H](Cc5ccc(O)cc5)N4C[C@@H]3Cc3ccc(O)cc3)N2)cc1  Kappa-type opioid receptor (Cavia porcellus, UniProt P41144)   3.58
5  CC(C)[C@H]1CN=C2C=C3N[C@@H](Cc4ccc(O)cc4)CN3[C@@H](Cc3ccccc3)CN21  Kappa-type opioid receptor (Cavia porcellus, UniProt P41144)   3.29
6  Oc1ccc(C[C@H]2CN3C(=CC4=NC[C@H](Cc5ccc(O)cc5)N4C[C@@H]3Cc3ccc(O)cc3)N2CCc2ccccc2)cc1  Kappa-type opioid receptor (Cavia porcellus, UniProt P41144)   3.19

----------
Kappa-type opioid receptor (Cavia porcellus, UniProt P41144) pKi data
pKi: −log10 of the molar value.
propertyLabel: pKi

> print(dat)
                               smilesstring                                  testedon  value
1  Oc1ccc(C[C@H]2CN3C(=CC4=NC[C@H](Cc5ccc(O)cc5)N4C[C@@H]3Cc3ccccc3)N2CCc2ccccc2)cc1  Kappa-type opioid receptor (Cavia porcellus, UniProt P41144)   6.12
2  CC(C)C[C@H]1CN2C(=CC3=NC[C@H](Cc4ccccc4)N3C[C@@H]2Cc2ccc(O)cc2)N1  Kappa-type opioid receptor (Cavia porcellus, UniProt P41144)   5.46
3  Oc1ccc(C[C@H]2CN3C(=CC4=NC[C@H](Cc5ccccc5)N4C[C@@H]3Cc3ccc(O)cc3)N2)cc1  Kappa-type opioid receptor (Cavia porcellus, UniProt P41144)   5.38
4  Oc1ccc(C[C@H]2CN3C(=CC4=NC[C@H](Cc5ccccc5)N4C[C@@H]3Cc3ccc(O)cc3)N2CCc2ccccc2)cc1  Kappa-type opioid receptor (Cavia porcellus, UniProt P41144)   5.88
